Biological target: T1, mouse DLL4 expressed on CHO cells (mouse, UniProt Q9JI71 27-686)
T1 construct: whole, on cells; also called mDLL4; CHO-mDLL4
T1 sequence (Q9JI71 27-686): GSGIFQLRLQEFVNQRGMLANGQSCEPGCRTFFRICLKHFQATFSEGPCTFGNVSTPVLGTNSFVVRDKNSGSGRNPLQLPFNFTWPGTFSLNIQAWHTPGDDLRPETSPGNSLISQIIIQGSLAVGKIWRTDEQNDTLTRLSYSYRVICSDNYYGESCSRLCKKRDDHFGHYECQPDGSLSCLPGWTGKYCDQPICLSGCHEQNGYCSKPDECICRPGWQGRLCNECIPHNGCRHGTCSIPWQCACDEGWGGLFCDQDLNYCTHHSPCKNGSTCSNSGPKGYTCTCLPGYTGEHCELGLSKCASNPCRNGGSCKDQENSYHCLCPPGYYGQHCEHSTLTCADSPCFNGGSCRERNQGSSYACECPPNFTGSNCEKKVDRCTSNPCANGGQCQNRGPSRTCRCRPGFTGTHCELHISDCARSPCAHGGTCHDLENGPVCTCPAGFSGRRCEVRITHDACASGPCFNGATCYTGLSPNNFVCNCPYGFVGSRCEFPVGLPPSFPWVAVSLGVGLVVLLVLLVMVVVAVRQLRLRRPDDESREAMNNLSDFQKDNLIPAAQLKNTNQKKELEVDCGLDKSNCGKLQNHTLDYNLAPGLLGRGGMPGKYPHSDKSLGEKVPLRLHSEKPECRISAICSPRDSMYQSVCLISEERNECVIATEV
Assay: competition FMAT CHO-mDLL4; summary table
Consider the following binders and their measured IC50 readings.
RECORDED METRIC: IC50 (nM)

>  <BINDER>
DLLBII129B05 (VHH, not shown: small tags and cut ends) VHH: EVQLVESGGGLVQAGGSLRLSCAASGRTFSSYAMAWYRQAPGKEREYVAAIRWSGGTAYYADSVQGRFTISRDNAKNTVYLQMNSLKPEDTAVYYCANRAPDTRLAPYEYDHWGQGTQVTVSS

>  <MEASURED VALUE>
14.4

$$$$
>  <BINDER>
DLLBII136C07 (VHH, not shown: small tags and cut ends) VHH: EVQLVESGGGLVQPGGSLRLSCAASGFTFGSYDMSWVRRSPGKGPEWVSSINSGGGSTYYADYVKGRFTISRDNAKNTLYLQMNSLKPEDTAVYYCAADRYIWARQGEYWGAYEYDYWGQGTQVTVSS

>  <MEASURED VALUE>
31.2

$$$$
>  <BINDER>
DLLBII015 (VHH, not shown: small tags and cut ends) VHH: EVQLVESGGGLVQPGGSLRLSCAASGFTIGSYDMSWVRRSPGKGPEWVSAINSGGGSTYYADYVKGRFTISRDNAKNTLYLQMNSLKPEDTAVYYCAADRYIWARQGEYWGAYAYDYWGQGTQVTVSS

>  <MEASURED VALUE>
21.2

$$$$
>  <BINDER>
DLLBII101G08 (VHH, not shown: small tags and cut ends, parent VHH; also called 101G08 (wt); 101G8) VHH: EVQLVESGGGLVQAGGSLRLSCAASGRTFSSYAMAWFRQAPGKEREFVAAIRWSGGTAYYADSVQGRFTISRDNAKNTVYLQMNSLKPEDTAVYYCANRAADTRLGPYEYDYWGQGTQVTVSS

>  <MEASURED VALUE>
140

$$$$
>  <BINDER>
DLLBII129E11 (VHH, not shown: small tags and cut ends) VHH: EVQLVESGGGLVQAGGSLRLSCAASGRTFSSYAMAWYRQAPGKEREYVAAIRWSGGTAYYADSVQGRFTISRDNAKNTVYLQMNSLKPEDTAVYYCANRAPDTRLRPYLYDYWGQGTQVTVSS

>  <MEASURED VALUE>
12.3

$$$$
>  <BINDER>
DLLBII129D08 (VHH, not shown: small tags and cut ends) VHH: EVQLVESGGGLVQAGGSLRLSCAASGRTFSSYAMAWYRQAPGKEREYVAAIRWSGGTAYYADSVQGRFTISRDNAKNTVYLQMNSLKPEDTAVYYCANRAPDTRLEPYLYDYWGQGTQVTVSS

>  <MEASURED VALUE>
11

$$$$
>  <BINDER>
DLLBII115A05 (VHH, not shown: small tags and cut ends, parent VHH; also called 115A05 (wt); 115A5) VHH: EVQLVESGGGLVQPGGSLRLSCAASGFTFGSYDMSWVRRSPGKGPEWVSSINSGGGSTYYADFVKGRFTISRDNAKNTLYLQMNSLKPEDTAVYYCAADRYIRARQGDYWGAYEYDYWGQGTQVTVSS

>  <MEASURED VALUE>
349

$$$$
>  <BINDER>
DLLBII133A09 (VHH, not shown: small tags and cut ends) VHH: EVQLVESGGGLVQPGGSLRLSCAASGFTFGSYDMSWVRRSPGKGPEWVSAINSGGGSTYYADYVKGRFTISRDNAKNTLYLQMNSLKPEDTAVYYCAADRYIWARQGEYWGAYAYDYWGQGTQVTVSS

>  <MEASURED VALUE>
18.6

$$$$
>  <BINDER>
DLLBII133G05 (VHH, not shown: small tags and cut ends) VHH: EVQLVESGGGLVQPGGSLRLSCAASGFTFGSYDMSWVRRSPGKGPEWVSAINSGGGSTYYTDYVKGRFTISRDNAKNTLYLQMNSLKPEDTAVYYCAADRYIWARQGEYWGAYAYDYWGQGTQVTVSS

>  <MEASURED VALUE>
12

$$$$
